The reader will find reported IC50 values listed item by item below.
biological target: protein-protein interaction between Kras and SOS1 (biotin-tagged human Kras loaded with GDP, His-tagged human SOS1) (Homo sapiens (Human), UniProt P01116, G12D); assay: Protein-protein interaction inhibition between Kras and SOS1 (KrasG12D-SOS PPI) using AlphaScreen; format: biochemical; conditions: AlphaScreen; biotin-tagged human Kras loaded with GDP, His-tagged human SOS1; read-out: KRAS G12D-SOS PPI IC50;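 also: kras produced in E. coli, Ni-coupled donor beads and streptavidin acceptor beads, excitation 680 nm with emission detected at 520–620 nm via singlet oxygen transfer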
Bridge positions count the residues as written; N and C are the ends. Square brackets hold non-standard residues; d marks the D form. Peptide text beside a SMILES is read from it. * marks the point of attachment. hPhe(3-Cl-4-CF3) = N[C@@H](CCc1ccc(C(F)(F)F)c(Cl)c1)C(=O)O; hPhe(3-F,4-CF3) = N[C@@H](CCc1ccc(C(F)(F)F)c(F)c1)C(=O)O; NMePhe(4-Me) = CN[C@@H](Cc1ccc(C)cc1)C(=O)O; NMeGly(cPent) = CN[C@H](C(=O)O)C1CCCC1; NMeI = CC[C@H](C)[C@H](NC)C(=O)O; NMeD = CN[C@@H](CC(=O)O)C(=O)O; NMeL = CN[C@@H](CC(C)C)C(=O)O; d(β3hA) = C[C@@H](N)CC(=O)O; NMeS = CN[C@@H](CO)C(=O)O; NMeA = CN[C@@H](C)C(=O)O; Pyrrolidide = C1CCN(*)C1; Ac5c = NC1(C(=O)O)CCCC1; Aze = O=C(O)[C@@H]1CCN1; Sar = CNCC(=O)O; Propyl = CCC*
Quantity Kind: IC50 (nM)

• CC[C@H](C)[C@@H]1NC(=O)[C@H](C)N(C)C(=O)C[C@@H](C)NC(=O)[C@H](C2CCCC2)N(C)C(=O)C2(CCCC2)NC(=O)[C@@H]2CCCN2C(=O)[C@H](CCc2ccc(C(F)(F)F)c(Cl)c2)NC(=O)CN(C)C(=O)[C@H](Cc2ccc(C)cc2)N(C)C(=O)[C@@H]2CCCN2C(=O)CN(C)C1=O [Compound 151] (cyclo([Ac5c][NMeGly(cPent)][d(β3hA)][NMeA]I[Sar]P[NMePhe(4-Me)][Sar][hPhe(3-Cl-4-CF3)]P)) = 5
• CCCOC[C@H]1C(=O)N(C)CC(=O)N[C@@H](CCc2ccc(C(F)(F)F)c(F)c2)C(=O)N2CCC[C@H]2C(=O)NC2(CCCC2)C(=O)N(C)[C@@H]([C@@H](C)CC)C(=O)N(C)[C@H](C(=O)N2CCCC2)CC(=O)N(C)[C@@H](CC(C)C)C(=O)N[C@@H]([C@@H](C)CC)C(=O)N(C)[C@@H](C)C(=O)N2CC[C@H]2C(=O)N1C [Compound 684] ([NMeL]I[NMeA][Aze][NMeS](Propyl)[Sar][hPhe(3-F,4-CF3)]P[Ac5c][NMeI][NMeD]-Pyrrolidide; lactam N-11) = 1.9
